Entries and their z-score
- METHOD_DESCRIPTION: inhibition of PAO1 biofilm formation – strain PAO1, LB-PBS medium, absorbance 600 nm, primary screen (AID 1176); further: test concentration not given here
- DETAILS: P. aeruginosa PAO1 growth/biofilm, A600, 12 h; higher = more signal
Reply with the value as a number alone.

Before answering, review these 3 worked examples.
[N-]=[N+]=NCc1ccccc1C[C@@]1(C(N)=O)N=C(c2ccc(OCCCO)cc2)O[C@@H]1c1ccccc1
0.563
C=C(COC)C(=O)CC[C@@H](OC(C)=O)c1cccc(OCCO)c1
-0.329
C=CCN1Cc2ccccc2[C@@H]2OC(c3ccc(OCCCO)cc3)=N[C@]2(CC=C)C1=O
0.314

Please examine the following record next.
Give me measured z-score, please, for this compound: `NC(=O)[C@H]1[C@@H]2C(=O)O[C@@H](c3ccccc3)[C@@H](c3ccccc3)N2[C@@H](c2ccc(OCCO)cc2)[C@]12C(=O)Nc1ccc(C#CCCO)cc12`
0.35

###

- System: Human papillomavirus type 1a protein E7 (residues 44-93)
- METHOD_DESCRIPTION: small molecules binding HPV E7 44-93 – biochemical, small-molecule microarray, residues 44-93, 635 nm fluorescence, primary screen (AID 1108);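 further: E7 fragment applied at 1 µg/mL in TBST for 1 h at 4 C; score combines spot fluorescence with its signal to noise ratio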
- DETAILS: fluorescence 635 nm, higher = more signal
Entries and their composite z-score
Reply with the value as a number alone.

Before answering, review these 3 worked examples.
COCCOC(=O)N1C(=O)[C@@]2(c3cc(C#CC4=CCCCC4)ccc31)[C@H](C(=O)Nc1nc3ccccc3s1)[C@H]1C(=O)O[C@H](c3ccccc3)[C@H](c3ccccc3)N1[C@@H]2c1ccc(O)cc1
1.39
C=CCOC(=O)[C@@]1(Cc2ccccc2)C[C@H]2CO[C@H](c3ccc(OC)cc3)N2C1=O
0.206
CO[C@H]1O[C@H](CO)[C@@H](OC(=O)Nc2ccccc2)[C@H](OC(=O)c2cc3ccccc3[nH]2)[C@H]1OC(=O)c1cc2ccccc2[nH]1
0.0679

Would you please give the reported composite z-score of `O=C(NCc1ccc(F)cc1)[C@H]1C[C@H]2C(=O)NCC(=O)N2[C@H]1c1ccc(O)cc1` with Human papillomavirus type 1a protein E7 (residues 44-93)?
1.03

###

Entries and their composite z-score
- METHOD_DESCRIPTION: probe aInhba binding on compound microarray – biochemical, small-molecule microarray, 635/667 nm fluorescence, primary screen (AID 1148);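 further: score merges 667nm spot fluorescence with signal-to-noise for antibody binding to printed compounds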
- DETAILS: higher = more signal
Reply with the value as a number alone.

CCCCCC1=C2CNC(C)(C(=O)OC)C=C2C(C)C1=O (configuration not stated)
0.0319
COc1ccc([Si](C)(C)[C@@H]2[C@@H](CC(=O)N3Cc4ccccc4C[C@H]3CO)O[C@]3(C(=O)N(Cc4ccc(N5C(=O)c6cccc7cccc5c67)cc4)c4ccccc43)[C@H]2C)cc1
0.0319

Give me measured composite z-score, please, for this compound: `CC(C)NC(=O)[C@@]1(c2ccc([N+](=O)[O-])cc2)CC(=O)N(C2CCCCC2)[C@@H]1c1ccc(CO)cc1`
-0.12

Give me measured composite z-score, please, for this compound: `C#CCN([C@@H](Cc1ccccc1)C(=O)OC)[C@@H](/C=C/C1CC1)[C@H](O)Cc1ccccc1`
-0.157

Give me measured composite z-score, please, for this compound: `COC(=O)c1c(CC[C@@H](CO)NC(=O)N2CCC[C@H]2Cn2cc(C3(O)CCCCC3)nn2)oc(C(C)=O)c1C(=O)OC`
-0.0448

Give me measured composite z-score, please, for this compound: `CC(C)NC(=O)[C@@]1(C)c2ccccc2C(=O)N(Cc2ccc(OC(F)(F)F)cc2)[C@H]1c1ccc(CO)cc1`
-0.183

Give me measured composite z-score, please, for this compound: `O=C(NCCN1CCOCC1)[C@@H]1c2ccccc2C(=O)N(Cc2ccccc2Cl)[C@H]1c1ccc(CO)cc1`
-0.32
